- measured.on: T1, Nluc-IL23R fusion protein (human, UniProt Q5VWK5 22-629)
- T1 construct: range 22-629; Stably expressed in HEK293 cells; also called hIL-23R; human IL-23R fused to a Nanoluc luciferase enzyme; not shown: Nanoluc luciferase (Promega N1371 plasmid) at the N-terminus
- T1 sequence (looked up): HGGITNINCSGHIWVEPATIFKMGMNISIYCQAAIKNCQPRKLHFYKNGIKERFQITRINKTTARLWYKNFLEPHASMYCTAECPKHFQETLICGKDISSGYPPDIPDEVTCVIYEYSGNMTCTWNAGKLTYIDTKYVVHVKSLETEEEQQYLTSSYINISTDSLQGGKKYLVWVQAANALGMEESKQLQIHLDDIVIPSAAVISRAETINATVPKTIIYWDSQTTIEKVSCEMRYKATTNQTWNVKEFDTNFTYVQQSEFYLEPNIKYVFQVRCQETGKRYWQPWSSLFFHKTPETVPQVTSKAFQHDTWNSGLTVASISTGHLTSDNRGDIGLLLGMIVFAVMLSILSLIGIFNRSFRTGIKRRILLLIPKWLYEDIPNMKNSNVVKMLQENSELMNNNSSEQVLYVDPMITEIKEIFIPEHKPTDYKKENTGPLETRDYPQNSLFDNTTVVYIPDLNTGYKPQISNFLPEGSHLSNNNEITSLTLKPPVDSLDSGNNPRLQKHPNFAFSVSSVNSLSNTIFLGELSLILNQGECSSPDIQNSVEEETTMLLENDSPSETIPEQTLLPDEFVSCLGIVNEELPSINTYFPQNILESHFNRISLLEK
- experiment.notes: BRET displacement of TAMRA-labelled peptide, Nluc-IL23R membranes
*1 amine or outer side, *2 acyl side, *3 side chain or, on linkers, in order; H or OH if unused. Bridges are numbered along the chain shown (N, C = ends). [ ]: non-standard residue; d: D form. 2Nal = N[C@@H](Cc1ccc2ccccc2c1)C(=O)O; CH2COCH2 = O=C(C[*:1])C[*:2]; 3Amb = NCc1cccc(C(=O)O)c1
attribute.measured: Ki (nM)

>>> df
                                     binder  attribute_measured  readout_units  readout_value
0  [3Amb]SCWQCW[2Nal]LER-NH2 (lactam N-10; linker 3-6 via CH2COCH2) [Compound 37]                  Ki             nM           9.86

The reported numbers originate from patent US20250154198A1.
